Reference source: PubChem BioAssay (NCI)

# Test system: MALME-3M melanoma
# Test Method Notes: NCI-60 one-dose screen, 48 h (100 = growth as untreated, 0 = no growth, -100 = all killed)
# Assay Setup: 10 µM unless noted
This is part of a sample that, as a whole, favours compounds with a hit. Of some 83,000 tested, about 20% had one in any assay.
Mark 1.0 for reported growth of 60% or greater; mark 0.0 for anything smaller.

Problem: Is the recorded value of growth equal to or greater than 60% for this compound? O=C(Nc1cccc([N+](=O)[O-])c1)c1cccc(C(=O)Nc2cccc([N+](=O)[O-])c2)c1
Result: 0.0

Problem: Is the recorded value of growth equal to or greater than 60% for this compound? Cn1cc(-c2csc(-c3cn(C)c4ncccc34)n2)c2cc(Br)cnc21
Result: 1.0

Problem: Is the recorded value of growth equal to or greater than 60% for this compound? CC(NC(=O)C(C)Oc1ccc(Cl)cc1Cl)C(=O)O (configuration not stated)
Result: 1.0

Problem: Is the recorded value of growth equal to or greater than 60% for this compound? CC(=O)O[C@H]1C(=O)[C@@]2(C)C([C@H](OC(=O)c3ccccc3)[C@]3(O)C[C@H](OC(=O)[C@H](O)[C@@H](NC(=O)c4ccccc4)c4ccccc4)C(C)=C1C3(C)C)[C@]1(OC(C)=O)CO[C@@H]1C[C@@H]2O (some centres not stated)
Result: 0.0

Problem: Is the recorded value of growth equal to or greater than 60% for this compound? O=C(/C=C/c1cc2ccccc2[nH]c1=O)c1ccc(Cl)cc1
Result: 0.0

Problem: Is the recorded value of growth equal to or greater than 60% for this compound? CN(C)CCCN1c2nc3ccccc3cc2Sc2cc3ccccc3nc21
Result: 0.0

Problem: Is the recorded value of growth equal to or greater than 60% for this compound? COc1ccc2c(c1)nc(N)c1c3cc(C)c(C)cc3cn21
Result: 1.0
